All figures here come from patent US20100036088A1.

- protocol_notes: MTS assay, metabolic inhibition
- Format: cell-based, mouse
Square brackets hold non-standard residues; d marks the D form. Peptide text beside a SMILES is read from it. Nspe = C[C@H](NCC(=O)O)c1ccccc1; Nlys = NCCCCNCC(=O)O
measured_parameter: IC50 (µM)
Please give a number only; it is taken to be in µM.

Worked examples follow.
C[C@@H](c1ccccc1)N(CC(=O)N(CCCCN)CC(=O)N(CC(=O)N(CC(=O)N(CCCCN)CC(=O)N(CC(=O)N(CC(=O)N(CCCCN)CC(N)=O)[C@@H](C)c1ccccc1)[C@@H](C)c1ccccc1)[C@@H](C)c1ccccc1)[C@@H](C)c1ccccc1)C(=O)CN(C(=O)CNCCCCN)[C@@H](C)c1ccccc1 [110mer, H-(Nlys-Nspe-Nspe)3-Nlys-NH2] (H-[Nlys][Nspe][Nspe][Nlys][Nspe][Nspe][Nlys][Nspe][Nspe][Nlys]-NH2) ... 54
C[C@@H](c1ccccc1)N(CC(N)=O)C(=O)CN(CCCCN)C(=O)CN(C(=O)CN(C(=O)CN(CCCCN)C(=O)CN(C(=O)CN(C(=O)CN(CCCCN)C(=O)CN(C(=O)CN(C(=O)CNCCCCN)[C@@H](C)c1ccccc1)[C@@H](C)c1ccccc1)[C@@H](C)c1ccccc1)[C@@H](C)c1ccccc1)[C@@H](C)c1ccccc1)[C@@H](C)c1ccccc1 [111mer, H-(Nlys-Nspe-Nspe)3-Nlys-Nspe-NH2] (H-[Nlys][Nspe][Nspe][Nlys][Nspe][Nspe][Nlys][Nspe][Nspe][Nlys][Nspe]-NH2) ... 11

# evaluate next
Input line: Param item = C[C@@H](c1ccccc1)N(CC(N)=O)C(=O)CN(C(=O)CN(CCCCN)C(=O)CN(C(=O)CN(C(=O)CN(CCCCN)C(=O)[C@@H]1CCCN1C(=O)CN(C(=O)CN(CCCCN)C(=O)CN(C(=O)CN(C(=O)CNCCCCN)[C@@H](C)c1ccccc1)[C@@H](C)c1ccccc1)[C@@H](C)c1ccccc1)[C@@H](C)c1ccccc1)[C@@H](C)c1ccccc1)[C@@H](C)c1ccccc1 [1-Pro6] (H-[Nlys][Nspe][Nspe][Nlys][Nspe]P[Nlys][Nspe][Nspe][Nlys][Nspe][Nspe]-NH2) ; retrieve measured IC50.
Output line: 18
